Data provenance: ChEMBL document CHEMBL5725787

- system_name: Tyrosine-protein kinase BTK (Homo sapiens, UniProt Q06187)
- Sequence (Q06187 whole entry): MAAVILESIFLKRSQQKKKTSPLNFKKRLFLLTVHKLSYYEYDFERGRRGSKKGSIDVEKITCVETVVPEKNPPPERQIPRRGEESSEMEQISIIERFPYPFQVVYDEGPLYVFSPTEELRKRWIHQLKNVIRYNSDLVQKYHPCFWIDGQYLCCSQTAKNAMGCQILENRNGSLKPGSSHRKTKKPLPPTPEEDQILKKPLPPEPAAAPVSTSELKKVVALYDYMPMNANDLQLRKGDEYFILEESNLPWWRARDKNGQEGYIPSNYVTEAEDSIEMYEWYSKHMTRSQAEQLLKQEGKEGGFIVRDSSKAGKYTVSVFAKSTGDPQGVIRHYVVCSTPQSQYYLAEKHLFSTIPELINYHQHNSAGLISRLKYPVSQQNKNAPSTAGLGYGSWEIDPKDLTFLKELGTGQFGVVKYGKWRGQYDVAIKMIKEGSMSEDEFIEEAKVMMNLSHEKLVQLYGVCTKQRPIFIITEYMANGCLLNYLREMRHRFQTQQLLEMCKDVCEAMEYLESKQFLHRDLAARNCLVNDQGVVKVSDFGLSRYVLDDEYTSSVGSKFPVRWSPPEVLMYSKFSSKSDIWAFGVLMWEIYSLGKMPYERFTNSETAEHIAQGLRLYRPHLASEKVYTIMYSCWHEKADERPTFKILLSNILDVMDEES
- assay_comment: BTK Inhibitory Activity: With regard to the setting of the conditions for a method for measuring the inhibitory activity of a compound against BTK kinase activity in vitro, it is described in the consumable reagent supplies price list for LabChip (registered trademark) series of PerkinElmer, Inc. that FL-PEPTIDE 2 corresponds to a substrate peptide for the measurement of BTK kinase activity. Therefore, FL-PEPTIDE 2 was used as a substrate. The purified recombinant human BTK protein used in the test was purchased from Carna Biosciences, Inc.With regard to the measurement of the inhibitory activity of the compounds, firstly, the compounds of the present invention were diluted stepwise with dimethyl sulfoxide (DMSO). Subsequently, BTK protein, a substrate peptide (final concentration was 1 μM), magnesium chloride (final concentration was 10 mM), ATP (final concentration was 45 μM), and a DMSO solution of the compounds of the present invention (final concentration of DMSO was 5%) were added to a buffer solution for kinase reaction (20 mM HEPES (pH 7.5), 2 mM dithiotheitol, 0.01% Triton X-100), and after the solution was incubated for 40 minutes at 25° C., a kinase reaction was carried out. The reaction was terminated by adding EDTA thereto in order to obtain a final concentration of 30 mM. Finally, a substrate peptide that was not phosphorylated (S) and a phosphorylated peptide (P) were separated and detected by microchannel capillary electrophoresis using a LabChip EZ Reader II (PerkinElmer, Inc.).
recorded_endpoint: pIC50
Lab note: report pIC50 as minus log10 of the concentration in molar units, number only.

# compound "C=CC(=O)N1CC[C@@H](n2nc(C(=O)Nc3nc4cc(-c5ccccc5)ccc4o3)c3c(N)ncnc32)C1" ; its pIC50 = 9.35
